tested.system: T1, 24P4C12 protein (human) (human, UniProt Q53GD3 1-710)
T1 construct: whole, on cells; also called SLC44A4; CTL4
T1 sequence (looked up): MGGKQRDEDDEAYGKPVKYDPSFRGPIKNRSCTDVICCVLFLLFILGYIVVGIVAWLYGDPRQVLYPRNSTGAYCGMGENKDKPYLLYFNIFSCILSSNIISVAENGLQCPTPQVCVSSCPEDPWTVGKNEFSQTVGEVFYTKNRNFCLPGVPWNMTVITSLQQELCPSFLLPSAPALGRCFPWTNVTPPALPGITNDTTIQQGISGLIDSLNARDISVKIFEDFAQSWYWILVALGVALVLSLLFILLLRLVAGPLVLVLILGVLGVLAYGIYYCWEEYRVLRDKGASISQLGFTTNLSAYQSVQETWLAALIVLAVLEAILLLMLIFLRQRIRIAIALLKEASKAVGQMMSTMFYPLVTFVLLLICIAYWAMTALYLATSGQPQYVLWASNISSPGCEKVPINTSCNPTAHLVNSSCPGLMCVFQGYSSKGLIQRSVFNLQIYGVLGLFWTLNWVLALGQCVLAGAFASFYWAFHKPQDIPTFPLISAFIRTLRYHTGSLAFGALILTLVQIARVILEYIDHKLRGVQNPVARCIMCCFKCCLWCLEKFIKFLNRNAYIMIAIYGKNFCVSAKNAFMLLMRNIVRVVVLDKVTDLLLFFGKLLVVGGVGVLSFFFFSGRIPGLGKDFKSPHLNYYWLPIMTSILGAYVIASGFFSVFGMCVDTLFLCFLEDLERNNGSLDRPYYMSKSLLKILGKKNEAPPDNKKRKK
assay.name: FACS saturation equilibrium binding on LNCaP cells
quantity.name: log10 of Kd (log10 of the value in nM)
The common logarithm of Kd in nM is what is listed.

Solved entries:
[
  {
    "binder": "Ha5-1(5)2.1 (antibody, V domains shown) VH: QVQLVESGGGVVQPGRSLRLSCAASGFTFSSYGMHWVRQAPGKGLEWVAVMSYDGSKKFYTDSVKGRFTISRDNSKNTLYLQMNSLRAEDTAVYYCARDGGDYVRYHYYGMDVWGQGTTVTVSS VL: DIQMTQSPSTLSASIGDRVTITCRASQGISYYLAWYQQKPGKIPKLLIYDTSSLQSGVPSRFSGSRSGTDLSLTISSLQPEDVATYYCQRYDSAPLTFGGGTKVEIK",
    "quantity.name": "log10 of Kd",
    "test.value": 0.44
  },
  {
    "binder": "Ha5-7acd16.1 (antibody, V domains shown, also called HA5-acd16.1; copies: 2 + 2) VH: QVQLVESGGGVVQPGRSLRLSCAASGFTFSSHGMHWVRQAPGKGLEWVAVIWYDGSNKYYADSVKGRFTISRDNSKNTLYLQMNSLRAEDTAVYYCARDAYSGYDYYYYYGMDVWGQGTTVTVSS VL: DIQMTQSPSSLSASVGDRVTITCRASQGIYTYLAWFQQKPGKAPKSLIYGASSLQSGVPSKFSGSGSGTDFTLTITSLQPEDFATYYCQQYTIYPFSFGPGTKVDIK",
    "quantity.name": "log10 of Kd",
    "test.value": -0.15
  },
  {
    "binder": "Ha5-8ac4.1 (antibody, V domains shown, also called Ha5-8acd4.1) VH: QVQLQESGPGLVKPSETLSLTCTVSGGSISRYYWSWIRQPAGKGLERIGRIYTSGSTDYNPSLKSRVTMSVDTSKNQFSLKLRSVTAADTAVYYCARDLYSNGYWYFDLWGRGTLVTVSS VL: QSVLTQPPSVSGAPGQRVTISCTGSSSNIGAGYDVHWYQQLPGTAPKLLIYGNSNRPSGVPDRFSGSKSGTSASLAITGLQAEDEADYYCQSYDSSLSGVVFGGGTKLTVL",
    "quantity.name": "log10 of Kd",
    "test.value": -1.15
  },
  {
    "binder": "Ha5-7acd4.1 (antibody, V domains shown) VH: QVQLVESGGGVVQPGRSLRLSCAASGFTFSSYGMHWVRQAPGKGLEWVAVIWYDGSNKYYADSVKGRFTISRDNSKNTLYLQMNSLRAEDTAVYYCARDRYSGYDYYYYYGMDVWGQGTTVTVSS VL: DIQMTQSPSSLSASVGDRVTITCRASQVIYNYLAWFQQKPGKAPKSLIYGASSLHSGVPSKFSGSGSGTEFTLTISSLQPEDFATYYCQQYTIYPFSFGPGTKVDIK",
    "quantity.name": "log10 of Kd",
    "test.value": 0.00
  }
]

Alright, here's another binder for you.
If you can, please state the reported log10 of Kd value of Ha5-7acd20.1.1 (antibody, V domains shown) VH: QVQLVESGGGVVQPGRSLRLSCAASGFTFSSYGMHWVRQAPGKGLEWVAVIWYDGRNKYYVDSVKGRFTISRDNSKNTLYLQMNSLRAEDTAVYYCARDRYSGSDYYYYYGMDVWGQGTTVTVSS VL: DIQMTQSPSSLSASVGDRVTITCRASQGIYNYLAWFQQKPGKAPKSLIYAASSLQSGVPSKFSGSGSGTVFTLTISSLQPEDFATYYCQQYTVYPFTFGPGTKVDFK .
0.04
